src = ChEMBL document CHEMBL6178013

# target_or_test_system: Chloride
# assay_comment: Binding affinity to chloride anions assessed as chloride efflux in egg-yolk L-alpha-phosphatidylcholine liposome model measured per lipid in presence of intravesicular NaCl/extravesicular NaNO3 by chloride ion selective electrode technique
EC50 less than 0.6 mol% is 1; EC50 greater than or equal to 0.6 mol% is -1.

Please review the following examples before continuing.
Below 0.6 mol% on EC50? Entry FC(F)(F)c1ccc2nc(-c3cccc(-c4nc5ccc(C(F)(F)F)cc5[nH]4)c3)[nH]c2c1
-1

Below 0.6 mol% on EC50? Entry Fc1cc(-c2nc3c(C(F)(F)F)cc(C(F)(F)F)cc3[nH]2)cc(-c2nc3c(C(F)(F)F)cc(C(F)(F)F)cc3[nH]2)c1
-1

Below 0.6 mol% on EC50? Entry Fc1cc(-c2nc3cc(F)c(C(F)(F)F)cc3[nH]2)cc(-c2nc3cc(F)c(C(F)(F)F)cc3[nH]2)c1
1

Below 0.6 mol% on EC50? Entry O=[N+]([O-])c1cc(-c2nc3ccc(C(F)(F)F)cc3[nH]2)cc(-c2nc3ccc(C(F)(F)F)cc3[nH]2)c1
1

Below 0.6 mol% on EC50? Entry c1cc(-c2nc3ccccc3[nH]2)cc(-c2nc3ccccc3[nH]2)c1
1

Below 0.6 mol% on EC50? Entry O=[N+]([O-])c1cc(-c2nc3cc(F)c(C(F)(F)F)cc3[nH]2)cc(-c2nc3cc(F)c(C(F)(F)F)cc3[nH]2)c1
1

***
Below 0.6 mol% on EC50? Entry FC(F)(F)c1cc(C(F)(F)F)c2nc(-c3cccc(-c4nc5c(C(F)(F)F)cc(C(F)(F)F)cc5[nH]4)c3)[nH]c2c1
-1

Below 0.6 mol% on EC50? Entry Fc1cc2nc(-c3cccc(-c4nc5cc(F)c(C(F)(F)F)cc5[nH]4)c3)[nH]c2cc1C(F)(F)F
-1

Below 0.6 mol% on EC50? Entry Fc1cc(-c2nc3ccc(C(F)(F)F)cc3[nH]2)cc(-c2nc3ccc(C(F)(F)F)cc3[nH]2)c1
-1

Below 0.6 mol% on EC50? Entry O=[N+]([O-])c1cc(-c2nc3c(C(F)(F)F)cc(C(F)(F)F)cc3[nH]2)cc(-c2nc3c(C(F)(F)F)cc(C(F)(F)F)cc3[nH]2)c1
1

* * *

# Tested on: MCF7
# assay_comment: Cytotoxicity against human MCF7 cells incubated for 48 hrs by MTT assay
# Format: functional, cell-based
# condition_description: MCF7, 48 h
Each item that follows carries a reported pIC50.
Reminder that pIC50 means the negative base-10 logarithm of the concentration expressed in mol/L.

Please report the recorded pIC50 for FC(F)(F)c1ccc2nc(-c3cccc(-c4nc5ccc(C(F)(F)F)cc5[nH]4)c3)[nH]c2c1 .
4.98

Please report the recorded pIC50 for O=[N+]([O-])c1cc(-c2nc3ccc(C(F)(F)F)cc3[nH]2)cc(-c2nc3ccc(C(F)(F)F)cc3[nH]2)c1 .
5.07

Please report the recorded pIC50 for O=[N+]([O-])c1cc(-c2nc3c(C(F)(F)F)cc(C(F)(F)F)cc3[nH]2)cc(-c2nc3c(C(F)(F)F)cc(C(F)(F)F)cc3[nH]2)c1 .
4.97

***
Please report the recorded pIC50 for Fc1cc(-c2nc3ccc(C(F)(F)F)cc3[nH]2)cc(-c2nc3ccc(C(F)(F)F)cc3[nH]2)c1 .
5.50

Please report the recorded pIC50 for Fc1cc(-c2nc3c(C(F)(F)F)cc(C(F)(F)F)cc3[nH]2)cc(-c2nc3c(C(F)(F)F)cc(C(F)(F)F)cc3[nH]2)c1 .
6.11

Please report the recorded pIC50 for Fc1cc(-c2nc3cc(F)c(C(F)(F)F)cc3[nH]2)cc(-c2nc3cc(F)c(C(F)(F)F)cc3[nH]2)c1 .
5.48
